PBM binding z-score reference
Tested on: FXR:RXRa (NR concentration 270 nM, RXRa partner concentration 90 nM)
Assay: PBM binding z-score (relative to random genomic background probes); higher = stronger binding; sequences stand for … in GC…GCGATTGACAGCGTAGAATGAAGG

Chain Sequence	PBM binding z-score
CCTACTGGGCCATGGTCATTGATCAGTCAAAGCA	0.0298
CAAACTAGGTCACAAAGGTCAAAGTCCGTGCGTA	7.43
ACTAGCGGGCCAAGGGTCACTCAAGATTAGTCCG	1.99
ACTAGCAGGCCAAGTTTGGGACACTCAAACAAAG	-0.139
GCTATAAGTTGAAAGGGCAACCGAATGATTCTCG	1.08
GCTAGTTGGTCAATAAAAGGTCACACACCGGTCG	3.63
CCTGCTAGGCCATGGTCAGCTAATCTACAGTATG	-0.543
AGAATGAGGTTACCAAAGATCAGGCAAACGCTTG	1.67
ACTTACGTGTCAACGAGGTTATAGCACGCGTATA	0.812
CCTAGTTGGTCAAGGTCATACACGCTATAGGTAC	4.77
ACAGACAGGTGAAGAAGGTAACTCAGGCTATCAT	0.248
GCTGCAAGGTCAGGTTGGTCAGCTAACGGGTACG	4.43
AGTCAAAGTTCACTAGGTAAGGTAAGATTCAGCT	5.15
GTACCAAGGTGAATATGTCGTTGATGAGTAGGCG	0.455
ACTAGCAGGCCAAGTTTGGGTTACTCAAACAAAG	-0.336
GCCGCTAGGTCAACTGATGGTCAGCTAAAGCTCG	3.97
AGAACGAGGGCACGCTGTGTTGATAGCAGAGTAG	0.77
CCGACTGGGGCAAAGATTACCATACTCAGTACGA	-0.494
CTCGATAGGTCGTGCTCAGGTGAGTATACCAAAC	0.909
TCTTGTAGATCACCAGGAGGTTAAGAAAGATCGA	0.307

* * *

Tested on: LXRb homodimer (NR concentration 270 nM)
Assay: PBM binding z-score (relative to random genomic background probes); higher = stronger binding; sequences stand for … in GC…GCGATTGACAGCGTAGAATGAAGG

Chain Sequence	PBM binding z-score
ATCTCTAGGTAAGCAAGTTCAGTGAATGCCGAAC	0.392
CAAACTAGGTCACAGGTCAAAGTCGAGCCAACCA	1.16
ATCGAAAGGTCGTGAGGTGGGTATACAGAAAGGC	0.784
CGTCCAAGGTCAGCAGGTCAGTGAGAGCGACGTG	-0.239
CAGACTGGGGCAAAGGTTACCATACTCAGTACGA	-0.226
CCGACTAGGGCAAAGGTTACCATACTCAGTACGA	-0.304
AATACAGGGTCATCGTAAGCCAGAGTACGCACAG	1.14
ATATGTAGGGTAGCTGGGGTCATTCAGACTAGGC	1.68
AGAATGAGGTTTAGATCAGGGAAACAGAATACAT	-0.223
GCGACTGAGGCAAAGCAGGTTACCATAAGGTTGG	-1.32
CCTACTGGGCCAAAAAGGTCATTCATGCCGATAA	0.914
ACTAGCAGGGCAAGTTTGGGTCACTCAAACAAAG	-0.746
ATCGAAAGGTCGAAGGTGAGGATACCCACCCGAA	0.724
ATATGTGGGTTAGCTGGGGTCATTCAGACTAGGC	2.51
CGAACTAGGTCATCCAGGACAGTGAGTACATTGA	0.24
CAAACTAGGTCACAGAGATCAAAGTCCGTGCGTA	0.38
ACTATTAGTTGAGACGAGGGCAACGGATAGGTTG	0.209

* * *

PBM binding z-score reference
Tested on: PXR:RXRa (NR concentration 270 nM, RXRa partner concentration 90 nM)
Assay: PBM binding z-score (relative to random genomic background probes); higher = stronger binding; sequences stand for … in GC…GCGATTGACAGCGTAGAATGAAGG
Endpoint: PBM binding z-score

Chain Sequence	Numeric Value
ACAGACAGGTGATGAGGGTAACTCAGGCTATCAT	0.296
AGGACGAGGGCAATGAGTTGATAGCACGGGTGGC	1.55
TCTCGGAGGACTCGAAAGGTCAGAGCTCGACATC	3.16
CCAGACAGGTGAAAGGTTACTCAGTCTGGTACGC	2.74
TCTTGTAGATCAACAGGAGGTTTAGAAAGATCGA	-0.0955
GATACATGGTCAGCTAGAGGCCAGAGTATGGAAA	-0.344
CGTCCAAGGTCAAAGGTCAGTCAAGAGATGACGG	7.08
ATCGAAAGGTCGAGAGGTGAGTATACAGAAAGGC	2.69
AGTCACAGTTCACTAGGTAACGTAAGATTCAGCT	1.35

* * *

System: VDR:RXRa (NR concentration 270 nM, RXRa partner concentration 90 nM)
Experiment: PBM binding z-score (relative to random genomic background probes); higher = stronger binding; sequences stand for … in GC…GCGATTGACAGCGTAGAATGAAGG
PBM binding z-score reference

Chain Sequence	Measured On	PBM binding z-score
ATCTCTAGTTAAGACTCAGTTCAGTGAAGAACGC	VDR:RXRa (NR concentration 270 nM, RXRa partner concentration 90 nM)	1.2
TCTTGTAGATCAACAGGAGGTCAAGAAAGATCGA	VDR:RXRa (NR concentration 270 nM, RXRa partner concentration 90 nM)	3.14
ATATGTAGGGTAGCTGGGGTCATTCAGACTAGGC	VDR:RXRa (NR concentration 270 nM, RXRa partner concentration 90 nM)	5.75
ATCTCTAGGTAACCAAGTTCAGTGATTGCCGAAC	VDR:RXRa (NR concentration 270 nM, RXRa partner concentration 90 nM)	4.17
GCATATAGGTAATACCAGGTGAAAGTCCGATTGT	VDR:RXRa (NR concentration 270 nM, RXRa partner concentration 90 nM)	-0.00851
CAGCCTAGGACAGGGCCAGTATAGGAGGAACGTT	VDR:RXRa (NR concentration 270 nM, RXRa partner concentration 90 nM)	-0.833
ATCTCTATGTAAAAGTTCAGTGAATCCCGAGGAT	VDR:RXRa (NR concentration 270 nM, RXRa partner concentration 90 nM)	1.2
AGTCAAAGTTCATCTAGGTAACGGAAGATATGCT	VDR:RXRa (NR concentration 270 nM, RXRa partner concentration 90 nM)	4.95
CCTGCTAGGTCAATGATCAGCTAAAGCAGCTCGC	VDR:RXRa (NR concentration 270 nM, RXRa partner concentration 90 nM)	0.447
CCTTACGGGCCAAGGTTATAGCACGGGTGGTACG	VDR:RXRa (NR concentration 270 nM, RXRa partner concentration 90 nM)	-0.139
TAGCCTCGGTCATGCGGGCCAGTATAGTGTCGGC	VDR:RXRa (NR concentration 270 nM, RXRa partner concentration 90 nM)	-0.284
ATCGAAAGGTCGTAGGTGAGTATACCCACCCGAA	VDR:RXRa (NR concentration 270 nM, RXRa partner concentration 90 nM)	3.47
CCTTACGCGTCAAGGTTATAGCACGGGTGGTACG	VDR:RXRa (NR concentration 270 nM, RXRa partner concentration 90 nM)	0.442
GCTAGTTGGTCAGTAAAAGATCACACACCGGTCG	VDR:RXRa (NR concentration 270 nM, RXRa partner concentration 90 nM)	-0.204
CGTCAAATTTCAACTAAGGTAACGTAAAGCACGC	VDR:RXRa (NR concentration 270 nM, RXRa partner concentration 90 nM)	0.709
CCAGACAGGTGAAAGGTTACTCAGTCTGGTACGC	VDR:RXRa (NR concentration 270 nM, RXRa partner concentration 90 nM)	2.35
TCATATAGGTAGAAGGTGAAAGTCGGTGTGGTAA	VDR:RXRa (NR concentration 270 nM, RXRa partner concentration 90 nM)	0.866
CCTAGTTGGTCAAGGTCACACACGCTATAGGTAC	VDR:RXRa (NR concentration 270 nM, RXRa partner concentration 90 nM)	4.26
AATACAGGGTCAATAGGCCAGAGTAGGTACGAAT	VDR:RXRa (NR concentration 270 nM, RXRa partner concentration 90 nM)	3.64
CAAACTAGGTGAAGGTCAAAGTCGGTTTGTGCCA	VDR:RXRa (NR concentration 270 nM, RXRa partner concentration 90 nM)	3.79
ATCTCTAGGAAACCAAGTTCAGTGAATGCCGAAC	VDR:RXRa (NR concentration 270 nM, RXRa partner concentration 90 nM)	1.49
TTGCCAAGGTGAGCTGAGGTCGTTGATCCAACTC	VDR:RXRa (NR concentration 270 nM, RXRa partner concentration 90 nM)	3.93
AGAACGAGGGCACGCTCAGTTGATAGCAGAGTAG	VDR:RXRa (NR concentration 270 nM, RXRa partner concentration 90 nM)	1.4
GAGACAGGGTCAAGGCCAGAGTACGCGTATTGAT	VDR:RXRa (NR concentration 270 nM, RXRa partner concentration 90 nM)	4.4
AGAATGAGGTTATTAAGATCAGGGAATTGCGGTC	VDR:RXRa (NR concentration 270 nM, RXRa partner concentration 90 nM)	2.62
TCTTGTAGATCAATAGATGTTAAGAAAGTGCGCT	VDR:RXRa (NR concentration 270 nM, RXRa partner concentration 90 nM)	0.468
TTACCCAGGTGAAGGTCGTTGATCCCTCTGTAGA	VDR:RXRa (NR concentration 270 nM, RXRa partner concentration 90 nM)	1.05
GCTAGTAGATCAAGGTTAAGAAAGACTAAGCTAA	VDR:RXRa (NR concentration 270 nM, RXRa partner concentration 90 nM)	-0.00199
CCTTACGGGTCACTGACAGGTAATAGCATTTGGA	VDR:RXRa (NR concentration 270 nM, RXRa partner concentration 90 nM)	3.17
GCGACTGGGGCATAAGCAGGTTACCATAACTTAA	VDR:RXRa (NR concentration 270 nM, RXRa partner concentration 90 nM)	-0.0344
